target: human TGR5 (Homo sapiens, UniProt Q8TDU6); construct: expressed in transfected cells; host or cells: HEK293; experiment: Cell-based TGR5 assay (cAMP generation, HTRF); conditions: HEK293 cells stably transfected with human TGR5; cAMP by HTRF; 30 minutes at 37° C.; read-out: pEC50 Human TGR5 (converted)
Sequence (Q8TDU6 whole entry): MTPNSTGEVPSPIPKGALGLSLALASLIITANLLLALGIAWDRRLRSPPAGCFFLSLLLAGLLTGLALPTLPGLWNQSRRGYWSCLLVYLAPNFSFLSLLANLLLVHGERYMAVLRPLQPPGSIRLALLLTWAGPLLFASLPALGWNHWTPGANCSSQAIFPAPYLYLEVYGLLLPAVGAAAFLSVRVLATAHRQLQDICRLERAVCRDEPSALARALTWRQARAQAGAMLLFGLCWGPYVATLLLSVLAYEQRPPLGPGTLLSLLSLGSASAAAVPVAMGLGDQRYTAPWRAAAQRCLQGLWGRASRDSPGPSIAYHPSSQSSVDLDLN
Please go through the items and note down their EC50.

>>> result("Cc1ccc(C(C)CCCC(=O)N(Cc2ccccc2)C[C@H](O)[C@@H](O)[C@H](O)[C@H](O)CO)cc1CNC1(c2cnccc2-c2ccccc2OC2CC2)CC1 (stereo partly drawn) [Compound I-259]")
"< 0.1 µM"
>>> result("O=C1O[C@H]([C@@H](O)[C@H](O)[C@H](O)CO)CN1CCCCc1cc(Cl)c(COC2(c3cnccc3-c3ccccc3OC3CC3)CC2)cc1Cl [Compound I-77]")
"< 0.1 µM"
>>> result("Clc1ccc(C2CC2)cc1CNC1(c2cnccc2-c2ccccc2OC2CC2)CC1 [Compound I-31]")
"< 0.1 µM"
>>> result("OC[C@@H](O)[C@@H](O)[C@H](O)[C@@H](O)CNCCCCc1cc(Cl)c(COC2(c3cnccc3-c3ccccc3OC3CC3)CC2)cc1Cl [Compound I-66]")
"0.126 to 1 µM"
>>> result("NC(=O)CN(CCCCCSc1ccc(Cl)c(COC2(c3cnccc3-c3ccccc3OC3CC3)CC2)c1)C(=O)[C@@H](O)[C@@H](O)[C@H](O)[C@@H](O)CO [Compound I-609]")
"< 0.1 µM"
>>> result("O=C([C@@H](O)[C@@H](O)[C@H](O)[C@@H](O)CO)N(CCCSc1ccc(Cl)c(COC2(c3cnccc3-c3ccccc3OC3CC3)CC2)c1)C1CCOCC1 [Compound I-565]")
"0.126 to 1 µM"

Would you mind listing EC50 for each of the following molecules?
1. CSc1cnc(C)cc1CNC1(c2cnccc2-c2ccccc2OC2CC2)CC1 [Compound I-42]
2. CCN(CCCCc1cc(Cl)c(COC2(c3cnccc3-c3ccccc3OC3CC3)CC2)cc1C)C(=O)NC[C@H](O)[C@@H](O)[C@H](O)[C@H](O)CO [Compound I-96]
3. CC(CCCCCNC(=O)[C@@H](O)[C@@H](O)[C@H](O)[C@@H](O)CO)c1ccc(Cl)c(CNC2(c3cnccc3-c3ccccc3OC3CC3)CC2)c1 (stereo partly drawn) [Compound I-280]
4. CCCN(C[C@H](O)[C@@H](O)[C@H](O)[C@H](O)CO)C(=O)CCCC(C)c1ccc(C)c(CNC2(c3cnccc3-c3ccccc3OC3CC3)CC2)c1 (stereo partly drawn) [Compound I-354]
5. O=C(/C=C/C1CCN(S(=O)(=O)c2ccc(Cl)c(COC3(c4cnccc4-c4ccccc4OC4CC4)CC3)c2)C1)NC[C@H](O)[C@@H](O)[C@H](O)[C@H](O)CO (stereo partly drawn) [Compound I-450]
6. Cc1ccc(SCCCCN(CCOCCO)C(=O)[C@@H](O)[C@@H](O)[C@H](O)[C@@H](O)CO)cc1CNC1(c2cnccc2-c2ccccc2OC2CC2)CC1 [Compound I-549]

1: < 0.1 µM; 2: < 0.1 µM; 3: < 0.1 µM; 4: < 0.1 µM; 5: < 0.1 µM; 6: < 0.1 µM
